Just for reference, PubChem BioAssay is where these values come from.

# ASSAY_OVERVIEW: MELAS cybrid and Rieske KO viability enhancers – cell-based, MELAS cybrids, Rieske KO mouse fibroblasts, CellTiter-Glo, primary screen (AID 1508586); note: test concentration not given here
# CONDITION_NOTES: MELAS cybrid survival, low glucose, CellTiter-Glo 48 h
Calls of active or inactive are those of the source.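 Rule for the calls: active = mean z-score across replicates of 1.96 or higher in either the MELAS or the Rieske mutant cell line; inactive = the rest.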
Lab note: assign the record to one of active, inactive

>  <COMPOUND>
O=C(O)C(Cc1ccccc1[N+](=O)[O-])=NNC1=NC(c2ccc(Cl)c(Cl)c2)CS1 (centres undefined)

>  <GROUP_LABEL>
inactive

$$$$
>  <COMPOUND>
CC1(C)CC(=O)c2sc(N3CCOCC3)nc2C1

>  <GROUP_LABEL>
inactive

$$$$
>  <COMPOUND>
CC[C@@]1([C@@H]2O[C@@H]([C@H]3O[C@@](O)(CO)[C@H](C)C[C@@H]3C)C[C@@H]2C)CC[C@H]([C@]2(C)CC[C@]3(C[C@H](O)[C@@H](C)[C@@H]([C@@H](C)[C@@H](OC)[C@H](C)C(=O)O)O3)O2)O1 (stereo in doubt)

>  <GROUP_LABEL>
inactive

$$$$

Challenge: Query: recorded result category for CCC(Nc1ncnc2nc[nH]c12)c1nc2cccc(F)c2c(=O)n1-c1ccccc1 (centres undefined) in this test
Response given: inactive

Challenge: Query: recorded result category for CC(C)CNC(=O)[C@@H]1C[C@H](CN2CCOCC2)CN(Cc2ccc(O)cc2)C1 in this test
Response given: inactive
